Data origin, for the record: paper PMC5640712

- TESTED SYSTEM: Trypsin (porcine pancreas, Sigma-Aldrich) (Sus scrofa, UniProt P00761)
- Sequence (P00761 9-231): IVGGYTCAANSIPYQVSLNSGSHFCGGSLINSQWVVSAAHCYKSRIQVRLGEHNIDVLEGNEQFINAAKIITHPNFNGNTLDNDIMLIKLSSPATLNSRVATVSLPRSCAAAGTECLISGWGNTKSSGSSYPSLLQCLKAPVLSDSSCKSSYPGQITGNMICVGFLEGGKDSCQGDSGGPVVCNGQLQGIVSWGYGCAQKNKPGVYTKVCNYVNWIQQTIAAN
MEASURED ATTRIBUTE: IC50

CC[C@H](C)[C@H](NC(=O)[C@@H](CCc1ccc(O)cc1)NC(=O)[C@H](O)Cc1ccc(O)cc1)C(=O)NC(C=O)CCCNC(=N)N (stereo partly shown) = 4.5 µM
